Assay: CCTE_Shafer_MEA_dev_per_network_spike_spike_percent: CCTE's Neural Network Formation Assay for Percent of Spikes in a Network Spike, Shafer Lab (AID 2284054)
Activity calls are given as the source filed them. The calls were made as follows: active = hit-call score of the fitted dose curve at least 0.9, where 1 is the maximum; inactive = score below 0.9.

{"smilesEntry": "OCC(F)(F)C(F)(F)C(F)(F)C(F)(F)C(F)(F)C(F)(F)CO", "AC50": "inactive"}
{"smilesEntry": "C=CC(=O)OCCC(F)(F)C(F)(F)C(F)(F)C(F)(F)F", "AC50": "8.58 µM (active)"}
{"smilesEntry": "NC(=O)C(F)(F)C(F)(F)C(F)(F)C(F)F", "AC50": "inactive"}
{"smilesEntry": "CNS(=O)(=O)C(F)(F)C(F)(F)C(F)(F)C(F)(F)C(F)(F)C(F)(F)C(F)(F)C(F)(F)F", "AC50": "inactive"}
{"smilesEntry": "O=S(=O)(O)CCC(F)(F)C(F)(F)C(F)(F)C(F)(F)C(F)(F)C(F)(F)C(F)(F)C(F)(F)F", "AC50": "inactive"}
{"smilesEntry": "NC(O)(C(F)(F)F)C(F)(F)F", "AC50": "inactive"}
{"smilesEntry": "C=CC(=O)OCC(F)(F)C(F)(F)C(F)(F)COC(=O)C=C", "AC50": "4.56 µM (active)"}
{"smilesEntry": "OC(O)C(F)(F)C(F)(F)F", "AC50": "inactive"}
{"smilesEntry": "O=C(O)C(F)(F)C(F)(F)C(F)(F)OC(F)(F)F", "AC50": "inactive"}
{"smilesEntry": "OCC(F)(F)C(F)(F)C(F)(F)C(F)(F)C(F)(F)C(F)(F)C(F)(F)C(F)(F)CO", "AC50": "inactive"}
{"smilesEntry": "CCN(CCO)S(=O)(=O)C(F)(F)C(F)(F)C(F)(F)C(F)(F)C(F)(F)C(F)(F)C(F)(F)C(F)(F)F", "AC50": "inactive"}

---

Molecular target: human Thromboxane A2 Receptor (TXA2), TBXA2R (gene 6915)
Test: NVS_GPCR_hTXA2: NovaScreen (NVS) G Protein-Coupled Receptor Assay for human Thromboxane A2 Receptor (TXA2) (AID 2283282);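 also: actives reduce bound radioligand signal relative to DMSO baseline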
Results filed as inconclusive are left out. Calls of active or inactive are those of the source. How the source made its calls: active means hit-call score of the fitted dose curve at least 0.9, where 1 is the maximum; inconclusive means response in the unintended direction; inactive means score below 0.9.
Outcome codes: 1 = active, 0 = inactive

{"smilesEntry": "CCOCN(C(=O)CS(=O)(=O)O)c1c(C)cccc1CC", "label": 0}
{"smilesEntry": "c1ccc(C[P+](c2ccccc2)(c2ccccc2)c2ccccc2)cc1", "label": 0}
{"smilesEntry": "CCN(CC)c1ccc(C=O)cc1", "label": 1}
{"smilesEntry": "O=C1c2c(O)ccc(Nc3ccc(CCO)cc3)c2C(=O)c2c([N+](=O)[O-])ccc(O)c21", "label": 0}
{"smilesEntry": "CCN(CC)c1ccc(C=O)c(O)c1", "label": 0}
{"smilesEntry": "CC(=O)c1ccccc1N", "label": 0}
{"smilesEntry": "O=C=Nc1cccc2c(N=C=O)cccc12", "label": 1}
{"smilesEntry": "CCOC(C=C(C)CCC=C(C)C)OCC", "label": 0}

---

Read-out: Collagen I, COL1A1 (gene 1277)
Assay: BSK_MyoF_CollagenI: BioMAP Diversity Plus: MyoF Assay for Collagen I Biomarker Activity (AID 2284238)
Details: primary human lung fibroblasts
The source made the active and inactive calls. Rule for the calls: active = hit-call score of the fitted dose curve at least 0.9, where 1 is the maximum; inactive = score below 0.9.
Outcomes: t = active, f = inactive

{"compound": "Cc1cc(O)c(C(C)(C)C)cc1C(C)(C)C", "label": "t"}
{"compound": "O=C(O)CCC(F)(F)C(F)(F)C(F)(F)F", "label": "f"}
{"compound": "NS(=O)(=O)C(F)(F)C(F)(F)C(F)(F)C(F)(F)C(F)(F)C(F)(F)F", "label": "f"}
{"compound": "CCN(CC)c1ccc2c(c1)Oc1cc(N(CC)CC)ccc1C21OC(=O)c2ccccc21", "label": "f"}
{"compound": "CCOC(=O)CC(=O)C(F)(F)C(F)(F)F", "label": "f"}
{"compound": "OCC(F)(F)C(F)(F)C(F)(F)C(F)(F)C(F)(F)C(F)(F)CO", "label": "f"}
{"compound": "OCC(O)CC(F)(F)C(F)(F)C(F)(F)C(F)(F)C(F)(F)C(F)(F)C(F)(F)C(F)(F)F (stereo not drawn)", "label": "f"}
{"compound": "NCC(F)(F)C(F)(F)C(F)(F)C(F)(F)C(F)(F)C(F)(F)F", "label": "f"}
{"compound": "O=C(O)C(F)(F)OC(F)(F)C(F)(F)OC(F)(F)C(F)(F)OC(F)(F)F", "label": "f"}
{"compound": "O=C=NCc1cccc(CN=C=O)c1", "label": "f"}
{"compound": "NC(=O)C(F)(F)C(F)(F)C(F)(F)F", "label": "f"}
{"compound": "C=CC(=O)OCC(F)(F)C(F)(F)C(F)(F)C(F)(F)C(F)(F)C(F)(F)C(F)(F)C(F)F", "label": "f"}
{"compound": "CO[Si](C)(CCC(F)(F)C(F)(F)C(F)(F)C(F)(F)C(F)(F)C(F)(F)F)OC", "label": "f"}
{"compound": "NC(=O)C(F)(F)C(F)(F)C(F)(F)C(F)F", "label": "f"}
{"compound": "FC(F)(F)C(F)(F)C(F)(F)C(F)(F)C(F)(F)C(F)(F)CC[Si](Cl)(Cl)Cl", "label": "f"}
{"compound": "O=C(Cl)C(F)(F)C(F)(F)C(F)(F)C(F)(F)C(F)(F)C(F)(F)C(F)(F)F", "label": "f"}
{"compound": "NC(=O)C(F)(F)C(F)(F)C(F)(F)C(F)(F)C(F)(F)C(F)(F)C(F)(F)F", "label": "f"}
{"compound": "Cc1ccc(O)c(-n2nc3ccccc3n2)c1", "label": "f"}
{"compound": "O=S(=O)(O)CCC(F)(F)C(F)(F)C(F)(F)C(F)(F)F", "label": "f"}
{"compound": "Nc1cc([N+](=O)[O-])cc(Cl)c1O", "label": "f"}
{"compound": "Cc1cc(C)c(O)c(C(C)(C)C)c1", "label": "t"}
{"compound": "Cc1cnccn1", "label": "f"}
{"compound": "O=S(=O)(OCC(F)(F)F)C(F)(F)C(F)(F)C(F)(F)C(F)(F)F", "label": "f"}

---

Read-out: Interferon-gamma inducible Protein 10 (IP10), CXCL10 (gene 3627)
Experiment: BSK_hDFCGF_IP10: BioMAP Diversity Plus: hDFCGF Assay for Interferon-gamma inducible Protein 10 (IP10) Biomarker Activity (AID 2283053)
Conditions: primary human foreskin fibroblasts; actives raise or lower the signal
Active and inactive are the calls of the source. The calls were made as follows: active = hit-call score of the fitted dose curve at least 0.9, where 1 is the maximum; inactive = score below 0.9.

{"compound": "Brc1nc2ccccc2s1", "outcome": "inactive"}
{"compound": "COC(F)(C(F)F)C(F)(F)F (stereo unspecified)", "outcome": "inactive"}
{"compound": "OCC(O)CC(F)(F)C(F)(F)C(F)(F)C(F)(F)F (stereo unspecified)", "outcome": "inactive"}
{"compound": "O=C(O)CCC(F)(F)C(F)(F)C(F)(F)C(F)(F)C(F)(F)C(F)(F)C(F)(F)F", "outcome": "inactive"}
{"compound": "O=C(Cl)C(F)(F)C(F)(F)C(F)(F)C(F)(F)C(F)(F)C(F)(F)C(F)(F)F", "outcome": "inactive"}
{"compound": "CC(C)CCCC(C)CCO (stereo unspecified)", "outcome": "inactive"}

---

Molecular target: Bile acid receptor (Homo sapiens) (UniProt Q96RI1)
Sequence (Q96RI1 whole entry, looked up): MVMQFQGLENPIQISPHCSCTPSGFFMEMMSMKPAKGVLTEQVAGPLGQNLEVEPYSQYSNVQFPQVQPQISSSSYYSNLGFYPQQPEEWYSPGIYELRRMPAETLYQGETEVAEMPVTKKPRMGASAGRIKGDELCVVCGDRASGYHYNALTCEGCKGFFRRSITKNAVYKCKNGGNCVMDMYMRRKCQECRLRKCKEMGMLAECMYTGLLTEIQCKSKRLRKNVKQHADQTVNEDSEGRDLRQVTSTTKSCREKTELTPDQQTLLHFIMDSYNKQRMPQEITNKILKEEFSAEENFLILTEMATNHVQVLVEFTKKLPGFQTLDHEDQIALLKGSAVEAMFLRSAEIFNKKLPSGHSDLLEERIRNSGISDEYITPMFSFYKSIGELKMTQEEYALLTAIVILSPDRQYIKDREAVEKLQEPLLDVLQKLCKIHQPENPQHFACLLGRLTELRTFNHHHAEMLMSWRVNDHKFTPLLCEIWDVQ
Experiment: OT_FXR_FXRSRC1_0480: Odyssey Thera (OT) 8-hour HEK293T Protein-Complementation Assay for Farnesoid X receptor/SRC-1 Co-activator (AID 2283383)
Inconclusive results are not listed. Calls of active or inactive are those of the source. The calls were made as follows: active = hit-call score of the fitted dose curve at least 0.9, where 1 is the maximum; inconclusive = response in the unintended direction; inactive = score below 0.9.
quantity: AC50

{"compound": "CC(=O)CCC(C)C", "measurement": "inactive"}
{"compound": "CC(C)(C)c1cc(Cc2cc(C(C)(C)C)c(O)c(C(C)(C)C)c2)cc(C(C)(C)C)c1O", "measurement": "inactive"}
{"compound": "F[Si-2](F)(F)(F)(F)F", "measurement": "inactive"}
{"compound": "CCc1cc(Cc2cc(CC)c(N)c(CC)c2)cc(CC)c1N", "measurement": "11.8 µM (active)"}
{"compound": "COCCOCCC[Si](C)(O[Si](C)(C)C)O[Si](C)(C)C", "measurement": "50 µM (active)"}
{"compound": "CCCCC(CC)COC(=O)c1ccc(N(C)C)cc1 (stereo not drawn)", "measurement": "32.7 µM (active)"}
{"compound": "CC(C)OC=O", "measurement": "inactive"}
{"compound": "O=C(c1ccccc1)c1ccc(O)cc1O", "measurement": "inactive"}

---

Molecular target: human Peroxisome Proliferator-activated Receptor delta (PPARd), PPARD (gene 5467)
Assay: ATG_PPARd_TRANS: Attagene TRANS-FACTORIAL HepG2 Assay for human Peroxisome Proliferator-activated Receptor delta (PPARd) (AID 2283002)
Records with an inconclusive call do not appear. Calls of active or inactive are those of the source. How the source made its calls: active means hit-call score of the fitted dose curve at least 0.9, where 1 is the maximum; inconclusive means response in the unintended direction; inactive means score below 0.9.
quantity: outcome

{"compound": "CN(C)C(C)(C)CO", "quantity": "outcome", "measurement": "inactive"}
{"compound": "CN(N=O)C(=O)N[C@@H]1[C@@H](O)[C@H](O)[C@@H](CO)O[C@@H]1O", "quantity": "outcome", "measurement": "inactive"}
{"compound": "Cc1cc(C)c(O)c(C(C)(C)C)c1", "quantity": "outcome", "measurement": "inactive"}
{"compound": "NC(O)(C(F)(F)F)C(F)(F)F", "quantity": "outcome", "measurement": "inactive"}
{"compound": "Cc1cc(O)c(C(C)(C)C)cc1C(C)(C)C", "quantity": "outcome", "measurement": "inactive"}
{"compound": "CCOC(OCC)OCC", "quantity": "outcome", "measurement": "inactive"}
{"compound": "CCCCC(CC)COC(=O)c1ccc(N(C)C)cc1 (stereo unspecified)", "quantity": "outcome", "measurement": "inactive"}
{"compound": "O=C1c2c(O)ccc(Nc3ccc(CCO)cc3)c2C(=O)c2c([N+](=O)[O-])ccc(O)c21", "quantity": "outcome", "measurement": "inactive"}
{"compound": "O=C1C=CC(=O)N1c1ccc(Cc2ccc(N3C(=O)C=CC3=O)cc2)cc1", "quantity": "outcome", "measurement": "inactive"}
{"compound": "CSc1ccc(Cl)cc1", "quantity": "outcome", "measurement": "inactive"}
{"compound": "CCC(=O)OC(C)c1ccccc1 (stereo unspecified)", "quantity": "outcome", "measurement": "inactive"}
